Cited source for all entries: ChEMBL document CHEMBL1127132

System: Serratia
experimentalProtocol: Compound was evaluated for antibacterial activity against serratia 16002 compared to imipenem
Assay type: functional
readoutKind: MIC

- compound: "C[C@@H](O)[C@H]1C(=O)N2C(C(=O)[O-])=C3c4ccsc4CC[C@@H]3[C@H]12.[Na+]"
  assayedSystem: "Serratia"
  valueReported: "32 µg/mL"
- compound: "C[C@@H](O)[C@H]1C(=O)N2C(C(=O)[O-])=C3c4ccccc4SC[C@@H]3[C@H]12.[Na+]"
  assayedSystem: "Serratia"
  valueReported: "16 µg/mL"
- compound: "C[C@@H](O)[C@H]1C(=O)N2C(C(=O)[O-])=C3c4ccccc4CCC[C@@H]3[C@H]12.[Na+]"
  assayedSystem: "Serratia"
  valueReported: "64 µg/mL"
- compound: "C[C@@H](O)[C@H]1C(=O)N2C(C(=O)O)=C(SCCNC=N)C[C@H]12 [IMIPENEM ANHYDROUS]"
  assayedSystem: "Serratia"
  valueReported: "0.5 µg/mL"

====

Tested on: Escherichia coli
experimentalProtocol: Compound was evaluated for antibacterial activity against Escherichia coli F14 compared to imipenem
Assay type: functional
compounds and their reported MIC
readoutKind: MIC

- compound: "C[C@@H](O)[C@H]1C(=O)N2C(C(=O)O)=C(SCCNC=N)C[C@H]12 [IMIPENEM ANHYDROUS]"
  readoutKind: "MIC"
  valueReported: "< 0.25 µg/mL"
- compound: "C[C@@H](O)[C@H]1C(=O)N2C(C(=O)[O-])=C3c4ccsc4CC[C@@H]3[C@H]12.[Na+]"
  readoutKind: "MIC"
  valueReported: "8 µg/mL"
- compound: "C[C@@H](O)[C@H]1C(=O)N2C(C(=O)[O-])=C3c4ccccc4SC[C@@H]3[C@H]12.[Na+]"
  readoutKind: "MIC"
  valueReported: "8 µg/mL"
- compound: "C[C@@H](O)[C@H]1C(=O)N2C(C(=O)[O-])=C3c4ccccc4CCC[C@@H]3[C@H]12.[Na+]"
  readoutKind: "MIC"
  valueReported: "16 µg/mL"

====

Test system: Staphylococcus
experimentalProtocol: Compound was evaluated for antibacterial activity against Staphylococcus 25455 compared to imipenem
Assay type: functional
compounds and their reported MIC
readoutKind: MIC (µg/mL)

- compound: "C[C@@H](O)[C@H]1C(=O)N2C(C(=O)[O-])=C3c4ccccc4SC[C@@H]3[C@H]12.[Na+]"
  unitsOfMeasure: "µg/mL"
  resultComparator: "<"
  valueReported: 0.25
- compound: "C[C@@H](O)[C@H]1C(=O)N2C(C(=O)[O-])=C3c4ccsc4CC[C@@H]3[C@H]12.[Na+]"
  unitsOfMeasure: "µg/mL"
  resultComparator: "="
  valueReported: 1
- compound: "C[C@@H](O)[C@H]1C(=O)N2C(C(=O)O)=C(SCCNC=N)C[C@H]12 [IMIPENEM ANHYDROUS]"
  unitsOfMeasure: "µg/mL"
  resultComparator: "<"
  valueReported: 0.25
- compound: "C[C@@H](O)[C@H]1C(=O)N2C(C(=O)[O-])=C3c4ccccc4CCC[C@@H]3[C@H]12.[Na+]"
  unitsOfMeasure: "µg/mL"
  resultComparator: "="
  valueReported: 0.5

====

Test system: Serratia
experimentalProtocol: Compound was evaluated for antibacterial activity against serratia 16001 compared to imipenem
Format: functional
readoutKind: MIC (µg/mL)

- molecule: "C[C@@H](O)[C@H]1C(=O)N2C(C(=O)[O-])=C3c4ccsc4CC[C@@H]3[C@H]12.[Na+]"
  assayedSystem: "Serratia"
  readoutKind: "MIC"
  unitsOfMeasure: "µg/mL"
  resultComparator: "="
  valueReported: 32
- molecule: "C[C@@H](O)[C@H]1C(=O)N2C(C(=O)[O-])=C3c4ccccc4CCC[C@@H]3[C@H]12.[Na+]"
  assayedSystem: "Serratia"
  readoutKind: "MIC"
  unitsOfMeasure: "µg/mL"
  resultComparator: "="
  valueReported: 64
- molecule: "C[C@@H](O)[C@H]1C(=O)N2C(C(=O)[O-])=C3c4ccccc4SC[C@@H]3[C@H]12.[Na+]"
  assayedSystem: "Serratia"
  readoutKind: "MIC"
  unitsOfMeasure: "µg/mL"
  resultComparator: "="
  valueReported: 8
- molecule: "C[C@@H](O)[C@H]1C(=O)N2C(C(=O)O)=C(SCCNC=N)C[C@H]12 [IMIPENEM ANHYDROUS]"
  assayedSystem: "Serratia"
  readoutKind: "MIC"
  unitsOfMeasure: "µg/mL"
  resultComparator: "<"
  valueReported: 0.25
